pEC50 values for the compounds below.
system: HCV genotype 1b (Con1) replicon in HUH-7 cells; assay: HCV replicon luciferase reporter assay, genotype 1b; format: cell-based; conditions: Hepatitis C virus, Huh-7, 72 h, HCV genotype 1b replicon luciferase, 3 days incubation, read-out: LE_1b (EC50, range)
pEC50: −log10 of the molar value.

Query `CCOc1cc2ccnc(O[C@@H]3C[C@H]4C(=O)N[C@]5(C(=O)NS(=O)(=O)C6(CF)CC6)C[C@H]5/C=C\CC[C@@H](C)C[C@@H](C)[C@H](NC(=O)OC(C)(C)C)C(=O)N4C3)c2cc1F` yields pEC50 of 9.00 to 9.29

Query `CC[C@@H]1C[C@H](C)CC/C=C\[C@@H]2C[C@@]2(C(=O)NS(=O)(=O)C2(C)CC2)NC(=O)[C@@H]2C[C@@H](Oc3nc4cc(OC(C)C)ccc4nc3C(F)(F)F)CN2C(=O)[C@H]1NC(=O)OC(C)(C)C` yields pEC50 of 9.00 to 9.29

====

pEC50 values for the compounds below.
test system: HCV genotype 1a (H77 strain) replicon in HUH-7 cells; assay: HCV replicon luciferase reporter assay, genotype 1a; format: cell-based; conditions: Hepatitis C virus, Huh-7, 72 h, HCV genotype 1a replicon luciferase assay, 3 days incubation, read-out: LE_1a (EC50)
Just so you know, pEC50 here is -log10 of the concentration in molar units; reply with that number alone.

1) C[C@@H]1CC/C=C\[C@@H]2C[C@@]2(C(=O)NS(=O)(=O)C2(C)CC2)NC(=O)[C@@H]2C[C@@H](Oc3nccc4cc(OCC(=O)O)ccc34)CN2C(=O)[C@@H](NC(=O)OC(C)(C)C)[C@H](C)C1 [Compound 2003] = 6.48

Here is another compound to look at.
Query COc1cc(F)cc2c(O[C@@H]3C[C@H]4C(=O)N[C@]5(C(=O)NS(=O)(=O)C6(CF)CC6)C[C@H]5/C=C\CC[C@@H](C)C[C@@H](C)[C@H](NC(=O)O[C@H](C)C(F)(F)F)C(=O)N4C3)nccc12 [Compound 3178] yields pEC50 of 8.50

====

tested on: HCV genotype 1b (Con1) replicon in HUH-7 cells; test: HCV replicon luciferase reporter assay, genotype 1b; assay type: cell-based; details: Hepatitis C virus, Huh-7, 72 h, HCV genotype 1b replicon luciferase, 3 days incubation, read-out: LE_1b (EC50, range)
pEC50: −log10 of the molar value.
Readout Label: pEC50

1) CCOc1cnc(O[C@@H]2C[C@H]3C(=O)N[C@]4(C(=O)NS(=O)(=O)C5(F)CC5)C[C@H]4/C=C\CC[C@@H](C)C[C@@H](C)[C@H](NC(=O)OC(C)(C)C)C(=O)N3C2)c2ccccc12 = > 8.26

Here is another compound to look at.
Query `CC[C@@H]1C[C@H](C)CC/C=C\[C@@H]2C[C@@]2(C(=O)NS(=O)(=O)C2CC2)NC(=O)[C@@H]2C[C@H](Oc3ncc(OC)c4ccc(F)cc34)CN2C(=O)[C@@H]1NC(=O)OC(C)(C)C` yields pEC50 of > 8.26

====

tested on: HCV genotype 1b (Con1) replicon in HUH-7 cells; experiment: HCV replicon luciferase reporter assay, genotype 1b; type: cell-based; details: Hepatitis C virus, Huh-7, 72 h, HCV genotype 1b replicon luciferase, 3 days incubation, read-out: LE_1b (EC50, range)
pEC50: −log10 of the molar value.
Readout Label: pEC50

1) COc1cc2cc(-c3ccc(OC(C)C)cc3)nc(O[C@@H]3C[C@H]4C(=O)N[C@]5(C(=O)NS(=O)(=O)C6CC6)C[C@H]5/C=C\CC[C@H](C)C[C@@H](C)[C@H](NC(=O)O[C@@H]5C[C@@H]6C[C@@H]6C5)C(=O)N4C3)c2cc1F [Compound 3187] = > 8.26
2) COc1cc2ccccc2c(O[C@@H]2C[C@H]3C(=O)N[C@]4(C(=O)NS(=O)(=O)C5CC5)C[C@H]4/C=C\CC[C@H](C)C[C@@H](C)[C@H](NC(=O)OC(C)(C)C(F)(F)F)C(=O)N3C2)n1 [Compound 6017] = > 8.26
3) COc1ccc(-c2nc(O[C@@H]3C[C@H]4C(=O)N[C@]5(C(=O)NS(=O)(=O)C6CC6)C[C@H]5/C=C\CC[C@H](C)C[C@@H](C)[C@H](NC(=O)OC(C)(C)C)C(=O)N4C3)c3ccc(OC)cc3n2)cc1 [Compound 5001] = > 8.26

Here is another compound to look at.
Query CC[C@@H]1C[C@@H](C)CC/C=C\[C@@H]2C[C@@]2(C(=O)NS(=O)(=O)C2(C)CC2)NC(=O)[C@@H]2C[C@@H](Oc3nnc(OC)c4ccccc34)CN2C(=O)[C@H]1NC(=O)NC(C)(C)C [Compound 5023] yields pEC50 of 6.99 to 8.32

====

tested on: HCV genotype 1b (Con1) replicon in HUH-7 cells; experiment: HCV replicon luciferase reporter assay, genotype 1b; assay type: cell-based; settings: Hepatitis C virus, Huh-7, 72 h, HCV genotype 1b replicon luciferase, 3 days incubation, read-out: LE_1b (EC50, range)
pEC50: −log10 of the molar value.
Readout Label: pEC50

1. CC[C@@H]1C[C@H](C)CC/C=C\[C@@H]2C[C@@]2(C(=O)NS(=O)(=O)C2(C)CC2)NC(=O)[C@@H]2C[C@@H](Oc3nccc4cc(OC)c(F)cc34)CN2C(=O)[C@H]1NC(=O)C1(C(F)(F)F)CC1 [Compound 4331] = 9.00 to 9.29

Here is another compound to look at.
Query CCn1nc(O[C@@H]2C[C@H]3C(=O)N[C@]4(C(=O)NS(=O)(=O)C5(C)CC5)C[C@H]4/C=C\CC[C@@H](C)C[C@@H](C)[C@H](NC(=O)C(=O)N(C)C)C(=O)N3C2)c2ccccc2c1=O [Compound 5063] yields pEC50 of < 7.06

====

test system: HCV genotype 1b (Con1) replicon in HUH-7 cells; test: HCV replicon luciferase reporter assay, genotype 1b; type: cell-based; conditions: Hepatitis C virus, Huh-7, 72 h, HCV genotype 1b replicon luciferase, 3 days incubation, read-out: LE_1b (EC50, range)
pEC50: −log10 of the molar value.
Readout Label: pEC50

Before answering, review these 2 worked examples.
1. CC[C@@H]1C[C@H](C)CC/C=C\[C@@H]2C[C@@]2(C(=O)NS(=O)(=O)C2CC2)NC(=O)[C@@H]2C[C@@H](Oc3ncc(C(=O)O)c4cc(OC)ccc34)CN2C(=O)[C@H]1NC(=O)OC(C)(C)C = 6.21 to 7.46
2. [2H]C([2H])([2H])C(OC(=O)N[C@@H]1C(=O)N2C[C@H](Oc3nc(-c4ccc(OC(C)C)cn4)cc4cc(OC)ccc34)C[C@H]2C(=O)N[C@]2(C(=O)NS(=O)(=O)C3CC3)C[C@H]2/C=C\CC[C@@H](C)C[C@H]1C)(C([2H])([2H])[2H])C(F)(F)F = > 8.26

Query `CCOc1ccc2c(O[C@@H]3C[C@H]4C(=O)N[C@]5(C(=O)NS(=O)(=O)C6(C)CC6)C[C@H]5/C=C\CC[C@H](C)C[C@@H](C)[C@H](NC(=O)NC(C)(C)C(F)(F)F)C(=O)N4C3)nccc2c1` yields pEC50 of > 8.26

Query `CCOc1ccc2c(O[C@@H]3C[C@H]4C(=O)N[C@]5(C(=O)NS(=O)(=O)C6(C)CC6)C[C@H]5/C=C\CC[C@@H](C)C[C@@H](C)[C@H](NC(=O)OC(C)(C)C)C(=O)N4C3)nccc2c1` yields pEC50 of > 8.26

====

tested on: HCV genotype 1b (Con1) replicon in HUH-7 cells; assay: HCV replicon luciferase reporter assay, genotype 1b; type: cell-based; details: Hepatitis C virus, Huh-7, 72 h, HCV genotype 1b replicon luciferase, 3 days incubation, read-out: LE_1b (EC50, range)
pEC50: −log10 of the molar value.
pEC50 values for the compounds below.

Before answering, review these 2 worked examples.
1. C[C@@H]1CC/C=C\[C@@H]2C[C@@]2(C(=O)NS(=O)(=O)C2(CF)CC2)NC(=O)[C@@H]2C[C@@H](Oc3nc4c(c5ccccc35)CCCO4)CN2C(=O)[C@@H](NC(=O)OC(C)(C)C(C)(F)F)[C@H](C)C1 = 9.30 to 10.00
2. COc1ccc2c(O[C@@H]3C[C@H]4C(=O)N[C@]5(C(=O)NS(=O)(=O)C6CC6)C[C@H]5/C=C\CC[C@@H](C)C[C@@H](C)[C@H](NC(=O)OC(C)(C)C(F)(F)F)C(=O)N4C3)nc(-c3ccc(OC(C)C)nc3)cc2c1 = > 8.26

Query `COc1ccc2c(O[C@@H]3C[C@H]4C(=O)N[C@]5(C(=O)NS(=O)(=O)C6(C)CC6)C[C@H]5/C=C\CC[C@@H](C)C[C@@H](C)[C@H](NC(=O)OC(C)(C)C)C(=O)N4C3)cnnc2c1` yields pEC50 of 6.21 to 7.46

Query `CC[C@@H]1C[C@H](C)CC/C=C\[C@@H]2C[C@@]2(C(=O)NS(=O)(=O)C2CC2)NC(=O)[C@@H]2C[C@@H](Oc3ncc(C(N)=O)c4cc(OC)ccc34)CN2C(=O)[C@H]1NC(=O)OC(C)(C)C` yields pEC50 of 6.21 to 7.46
